test: Lipophilicity, log D of the compound at pH 7.4 by RP-HPLC method; type: physicochemical; conditions: buffer
measured-attribute: chromatographic logD

Take a look at these entries with their results.
* CN1C(=O)[C@@H](NC(=O)c2cc(Cc3ccccc3)n(C)n2)COc2ccccc21 | 5.4
* CN1C(=O)[C@@H](NC(=O)c2nnn(Cc3ccccc3)n2)COc2ccccc21 | 5
* CN1C(=O)[C@@H](NC(=O)c2cn(Cc3ccccc3)cn2)COc2ccccc21 | 4.2

a. CN1C(=O)[C@@H](NC(=O)c2ncn(Cc3ccccc3)n2)COc2ccccc21
b. CN1C(=O)[C@@H](NC(=O)c2ncc(Cc3ccccc3)s2)COc2ccccc21
Exam item: Lower value for measured chromatographic logD? Options: a , b Write down the label attached to your selection.
Marked response: a

---

test: Drug level in rat hepatocytes treated with GSK2982772 at 10 uM measured up to 4 hrs; format: ADME, cell-based, Hepatocyte
measured-attribute: Drug metabolism

- CN1C(=O)[C@@H](NC(=O)c2n[nH]c(C(O)c3ccccc3)n2)COc2ccccc21 (some centres undefined): Metabolite_Detected
- O=C(N[C@H]1COc2ccccc2NC1=O)c1n[nH]c(Cc2ccccc2)n1: Metabolite_Detected
- CN1C(=O)[C@@H](N)COc2ccccc21: Metabolite_Detected
- O=C(O)c1n[nH]c(Cc2ccccc2)n1: Metabolite_Detected

---

Biological target: Receptor-interacting serine/threonine-protein kinase 1 (Homo sapiens)
Sequence (Q13546 whole entry): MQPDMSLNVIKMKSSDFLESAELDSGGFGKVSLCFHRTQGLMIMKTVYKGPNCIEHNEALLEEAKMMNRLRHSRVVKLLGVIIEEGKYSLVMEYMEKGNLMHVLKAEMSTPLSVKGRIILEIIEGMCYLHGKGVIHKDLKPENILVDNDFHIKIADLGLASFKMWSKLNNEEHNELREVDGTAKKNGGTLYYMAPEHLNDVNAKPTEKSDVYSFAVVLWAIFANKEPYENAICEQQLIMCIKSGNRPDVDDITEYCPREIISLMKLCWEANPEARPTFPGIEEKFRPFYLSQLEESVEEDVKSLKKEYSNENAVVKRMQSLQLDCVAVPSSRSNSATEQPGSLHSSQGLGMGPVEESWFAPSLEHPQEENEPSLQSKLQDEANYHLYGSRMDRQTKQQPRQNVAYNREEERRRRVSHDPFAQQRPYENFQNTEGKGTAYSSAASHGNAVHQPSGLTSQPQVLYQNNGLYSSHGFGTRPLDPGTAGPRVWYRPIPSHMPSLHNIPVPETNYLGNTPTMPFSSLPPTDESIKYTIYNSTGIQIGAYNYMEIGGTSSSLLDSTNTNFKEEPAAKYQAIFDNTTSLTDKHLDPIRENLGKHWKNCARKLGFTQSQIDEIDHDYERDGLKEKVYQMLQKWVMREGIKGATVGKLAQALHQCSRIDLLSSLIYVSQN
Assay: Displacement of (14-(2-{[3-({2-{[4-(cyanomethyl)phenyl]amino}-6-[(5-cyclopropyl-1H-pyrazol-3-yl)-amino]-4-pyrimidinyl}amino)propyl]amino}-2-oxoethyl)-16,16,18,18-tetramethyl-6,7,7a,8a,9,10,16,18-octahydrobenzo[2'',3'']indolizino-[8'',7'':5',6']pyrano[3',2':3,4]pyrido[1,2-a]indol-5-ium-2-sulfonate from human RIP1 (1 to 375 residues) expressed in baculovirus infected insect cells measured for 50 min
measured-attribute: IC50 (µM)

A. CN1C(=O)[C@@H](NC(=O)c2cccc(Cc3ccccc3)c2)COc2ccccc21
B. Cc1cc(C(=O)N[C@H]2COc3ccccc3N(C)C2=O)no1
Exam item: I would appreciate it if you could say which entry, A or B , has the lower IC50 value. API: response body contains the label of the selected item.
Marked response: A
